Several reports have described IC50 for Dihydrofolate reductase (Rattus norvegicus, UniProt Q920D2); a selection of those results is presented here.
Number in µM, nothing else.

Example results:
CN(Cc1ccc2nc(N)nc(N)c2n1)c1cccc(Cl)c1; 0.067
COc1cc2c(cc1OC)N(Cc1cnc3nc(N)nc(N)c3c1C)CC2; 0.23

Alright, here's another compound for you.
Given the compound "CCc1nc(N)nc(N)c1-c1ccc(Cl)c(/N=N/N(CCOC(=O)C(C)C)Cc2ccccc2)c1" , what is its reported IC50?
3.7

----------
Several reports have described IC50 for Dihydrofolate reductase (Rattus norvegicus); a selection of those results is presented here.
Label Criterion met when IC50 is strictly below 500 nM; at or above that, label Criterion not met.

Solved entries:
CCc1nc(N)nc(N)c1-c1ccc(Cl)c(/N=N/N(CCOC(C)=O)Cc2ccc(Cl)cc2)c1; Criterion not met
COc1ccc(SCc2cnc3nc(N)nc(N)c3c2C)cc1; Criterion not met
CCc1nc(N)nc(N)c1-c1ccc(N2CCCC2)c(N)c1; Criterion not met
Nc1ncc(Cc2cc(Br)c(N)c(Br)c2)c(N)n1; Criterion not met
COc1cc(OC)cc(N(C)Cc2c[nH]c3nc(N)nc(O)c23)c1; Criterion not met

Now look at this one.
hey, is IC50 for "COc1ccc(C)cc1NCc1cnc2nc(N)nc(N)c2c1C" lower than 500 nM or not?
Criterion met

----------
Several reports have described IC50 for Dihydrofolate reductase (Rattus norvegicus); a selection of those results is presented here.
A bare number is not enough; add the unit after it.

Example results:
COc1ccc(OC)c(NCc2ccc3nc(N)nc(N)c3n2)c1; 430 nM
COc1ccc(NCc2cnc3nc(N)nc(N)c3c2C)cc1OC; 6.5 nM
COc1cc(N(C=O)Cc2cnc3nc(N)nc(N)c3c2)cc(OC)c1OC; 7400 nM
Nc1nc(N)c2cc(CNc3cc(Cl)ccc3Cl)cnc2n1; 6900 nM
COc1cc(C(=O)OCc2ccc3nc(N)nc(N)c3c2)cc(OC)c1OC; 26 nM

Given the molecule "COc1ccc(NCc2ccc3nc(N)nc(N)c3n2)cc1OC" , what is its reported IC50?
60 nM

----------
pIC50: −log10 of the molar value.
Several reports have described pIC50 for Dihydrofolate reductase (Rattus norvegicus); a selection of those results is presented here.
Assign criterion met to entries whose pIC50 meets or exceeds 6; assign criterion not met to the rest.

Solved entries:
CN(Cc1ccc2nc(N)nc(N)c2n1)c1ccc(Cl)cc1Cl; criterion met
Cc1c(CNc2ccccc2Cl)cnc2nc(N)nc(N)c12; criterion met
CN(Cc1ccc2nc(N)nc(N)c2n1)c1ccccc1; criterion met
Nc1nc(N)c2cc(NCc3ccccc3)cnc2n1; criterion not met
COc1cc(NCc2ccc3nc(N)nc(N)c3c2Cl)cc(OC)c1OC; criterion met

Now look at this one.
Textbook exercise: given the entry "Nc1ncc(Cc2cc(I)c(O)c(I)c2)c(N)n1" , state whether its pIC50 is greater than or equal to 6.
criterion not met

----------
Several reports have described log10(IC50) for Dihydrofolate reductase (Rattus norvegicus); a selection of those results is presented here.
# log10 transformed; quantity=IC50; unit=µM

Given the compound "CCc1nc(N)nc(N)c1-c1ccc(NCc2ccc(Cl)c(Cl)c2)c([N+](=O)[O-])c1" , what is its reported log10(IC50)?
-2.10

Item: "C#CCN(Cc1ccc2nc(N)nc(N)c2n1)c1ccc(C(C)=O)cc1"
-1.82

Item: "Nc1nc(N)c2cc(CNc3ccc(Cl)cc3)cnc2n1"
-0.14

Item: "COc1cc(CN(C)c2cnc3nc(N)nc(N)c3c2)cc(OC)c1OC"
-1.48

Item: "COc1ccc(OC)c(N(C)Cc2ccc3nc(N)nc(N)c3n2)c1"
-1.30

Item: "COc1cc(CN(C)c2cnc3nc(N)nc(N)c3c2)cc(OC)c1"
-1.14

----------
Several reports have described pIC50 for Dihydrofolate reductase (Rattus norvegicus, UniProt Q920D2); a selection of those results is presented here.
Target Or Test System: Dihydrofolate reductase (Rattus norvegicus, UniProt Q920D2)
Sequence (Q920D2 whole entry): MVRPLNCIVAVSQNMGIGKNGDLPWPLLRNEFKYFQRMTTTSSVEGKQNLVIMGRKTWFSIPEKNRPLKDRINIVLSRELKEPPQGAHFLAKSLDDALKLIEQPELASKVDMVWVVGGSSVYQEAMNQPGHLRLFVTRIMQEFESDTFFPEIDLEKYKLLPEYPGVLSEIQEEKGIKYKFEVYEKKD
Notebook: values listed as pIC50 are -log10 of the concentration (mol/L).

COc1ccc(NCc2ccc3nc(N)nc(N)c3n2)cc1; 7.14
CCc1nc(N)nc(N)c1-c1ccc(N(C)Cc2ccccc2)c(N)c1; 7.00
COc1ccc(OC)c(N(C)Cc2cnc3nc(N)nc(N)c3c2C)c1; 6.34
CCc1nc(N)nc(N)c1-c1ccc(NCc2ccc(OC)cc2)c([N+](=O)[O-])c1; 7.70
Cc1c(CNc2ccc(Cl)cc2)cnc2nc(N)nc(N)c12; 7.14

Given the compound "C=CCc1cc(Cc2cnc(N)nc2N)cc(CCC)c1O" , what is its reported pIC50?
5.44

Item: "COc1cc(OC)cc(C(=O)OCc2ccc3nc(N)nc(N)c3c2)c1"
6.46
